Molecular target: IKBKB (human)
Experiment: radiometric filter-binding kinase assay
Settings: compound 0.1 µM
Listing of entries alongside the reported residual activity.
ATTRIBUTE MEASURED: residual activity (%)

>>> measured_result("CNC(=O)C1[C@H]2O[C@@](C)([C@@H]1N)n1c3ccccc3c3c4c(c5c6ccccc6n2c5c31)C(=O)NC4 (stereo not given in full)")
24
>>> measured_result("COc1cc(O)c2c(c1)[C@H]1OC1C[C@H](O)[C@H](O)C(=O)/C=C\\C[C@H](C)OC2=O (stereo not given in full)")
100
>>> measured_result("O=C(O)c1ccc(-c2c[nH]c3ncc(-c4ccccc4)cc23)cc1C1CCCC1")
94
>>> measured_result("COc1ccc(-n2ncc3cnc(Nc4cc(OC)c(OC)c(OCCCN5CCN(C)CC5)c4)nc32)cc1")
86
>>> measured_result("C=CC(=O)N1CCC[C@@H](n2nc(-c3ccc(Oc4ccccc4)cc3)c3c(N)ncnc32)C1")
94
>>> measured_result("CCc1cncnc1N1CCN(Cc2nc3cc(C(F)(F)F)ccc3[nH]2)CC1")
104
>>> measured_result("NC1(c2ccc(-c3nc4ccn5c(=O)[nH]nc5c4cc3-c3ccccc3)cc2)CCC1")
112
>>> measured_result("O=C(NCCCNc1nc(Nc2cccc(CN3CCOCC3)c2)ncc1C1CC1)C1CCC1")
115
>>> measured_result("Cn1c(=O)c2c(ncn2C)n(C)c1=O")
90
>>> measured_result("CCCCCc1ccc(/C=C/[C@H](O)[C@@H](CO)NC)cc1")
91
